Source of measurements: PubChem BioAssay AID2060505

// reported viability, T/C per item
# Test system: 633275-114-R-J1-PDC complex spheroids, viability;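 further: spheroids exposed to the agents for seven days; percent of DMSO vehicle control viability which is 100%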
# protocol text: Anticancer human tumor 633275-114-R-J1-PDC patient-derived endometrial adenocarcinoma cell line growth inhibition [GQUAD]
# settings: second compound 0.1 µM; first compound 1 µM; hits give low values
measurement type: viability, T/C (%)

INSERT INTO measurements (molecule, uom, measured_number) VALUES
  ('COc1cc(C2c3cc4c(cc3C(OC3OC5COC(C)OC5C(O)C3O)C3COC(=O)C23)OCO4)cc(OC)c1O (stereo not given) + Cc1cnc(CNC(=O)c2c(=O)c3ccc(N4CCCN(C)CC4)nc3n3c2sc2ccccc23)cn1', '%', 40),
  ('COc1ccc([C@@H](O)c2cc(-c3ncnc4cc(N5CCOCC5)ccc34)c(F)cc2Cl)nn1 + Cc1cnc(CNC(=O)c2c(=O)c3ccc(N4CCCN(C)CC4)nc3n3c2sc2ccccc23)cn1', '%', 25),
  ('Nc1ccn(C2OC(CO)C(O)C2(F)F)c(=O)n1 (stereo not given) + Cc1[nH]c2ccc(F)cc2c1-c1nc2c3cccnc3c3ncccc3c2[nH]1', '%', 27.3),
  ('CC(C)(O)C1CCC(Nc2ccc3ncc(-c4cccc(C(F)(F)F)c4)n3n2)CC1 (stereo not given) + CN(C)c1ccc(Nc2c3ccc(NC(=O)CCN4CCCC4)cc3nc3cc(NC(=O)CCN4CCCC4)ccc23)cc1', '%', 70.4),
  ('CC(C)(O)C1CCC(Nc2ccc3ncc(-c4cccc(C(F)(F)F)c4)n3n2)CC1 (stereo not given) + Cc1[nH]c2ccc(F)cc2c1-c1nc2c3cccnc3c3ncccc3c2[nH]1', '%', 79.7);
